# method.description: Toxicokinetic study of AAI after single oral administration (plasma, UPLC-QQQ-MS/MS, NCA)
# Assay type: in vivo, F344 rats
# details: both sexes, F344, rat, plasma, po, 30 mg/kg, 30 mg/kg single oral, rat plasma, mean ± SD
recorded.endpoint: AUC(0-t) (ng·h/mL)
Give the value in ng·h/mL but do not write ng·h/mL after it.

Query: Given COc1cccc2c1cc([N+](=O)[O-])c1c(C(=O)O)cc3c(c12)OCO3 [AAI, Aristolochic acid I] , state its recorded AUC(0-t).
Reply: 3950

----------
# method.description: Qualitative analysis of AAI and metabolites in bile of bile duct-cannulated rats
# Type: in vivo, F344 rats
# details: 30 mg/kg AAI oral, bile collected 0–3 h, 3–6 h, 6–9 h, 9–12 h, qualitative UHPLC-Q-Exactive
recorded.endpoint: detection in bile (biliary excretion)

COc1cccc2c1cc1c3c(cc4c(c32)OCO4)C(=O)N1O [ALI-N-OH, N-hydroxyaristolactam I]: detected in bile samples
COc1cccc2c1c(O)c1c3c(cc4c(c32)OCO4)C(=O)N1 [ALI-9-OH, 9-hydroxyaristolactam I]: detected in bile samples

----------
# method.description: Toxicokinetic study of AAI after single oral administration (plasma, UPLC-QQQ-MS/MS, NCA)
# Format: in vivo, F344 rats
# details: both sexes, F344, rat, plasma, po, 30 mg/kg, 30 mg/kg single oral, rat plasma, mean ± SD; read-out: Cmax
recorded.endpoint: Cmax (ng/mL)
Numbers only; they are read as ng/mL.

Query: Need Cmax of COc1cccc2c1cc([N+](=O)[O-])c1c(C(=O)O)cc3c(c12)OCO3 [AAI, Aristolochic acid I] , thanks.
Reply: 2450

----------
# method.description: Toxicokinetic study of AAI after single oral administration (plasma, UPLC-QQQ-MS/MS, NCA)
# Assay type: in vivo, F344 rats
# details: both sexes, F344, rat, plasma, po, 10 mg/kg, 10 mg/kg single oral, rat plasma, mean ± SD
recorded.endpoint: half-life
The reply must contain the numeric value and, after it, the unit.

Query: Reported half-life, compound "COc1cccc2c1cc([N+](=O)[O-])c1c(C(=O)O)cc3c(c12)OCO3" : ____
Reply: 1.31 h

----------
# method.description: Toxicokinetic study of AAI after single oral administration (plasma, UPLC-QQQ-MS/MS, NCA)
# Assay type: in vivo, F344 rats
# details: both sexes, F344, rat, plasma, po, 10 mg/kg, low-dose (10 mg/kg oral), 16 h, individual rats M104,M105,M106,F104,F105,F106; below LLOQ set to zero
recorded.endpoint: concentration at 16 h (ng/mL)
Just the number please, in ng/mL, no unit attached.

Query: Entry "COc1cccc2c1cc([N+](=O)[O-])c1c(C(=O)O)cc3c(c12)OCO3" has what concentration at 16 h?
Reply: 0

----------
# method.description: Toxicokinetic study of AAI after single oral administration (plasma, UPLC-QQQ-MS/MS, NCA)
# Format: in vivo, F344 rats
# details: both sexes, F344, rat, plasma, po, 10 mg/kg, 10 mg/kg single oral, rat plasma, mean ± SD
recorded.endpoint: AUC(0-t) (ng·h/mL)
Give the quantity in ng·h/mL, number only.

Query: Reported AUC(0-t) for "COc1cccc2c1cc([N+](=O)[O-])c1c(C(=O)O)cc3c(c12)OCO3" : what is it?
Reply: 969
